ASSAY: Solubility of miconazole nitrate in several common solvents
Format: physicochemical
ASSAY_CONTEXT: organic solvent or mixture; Solvent: Chloroform; read-out: solubility
VALUE_TYPE: solubility (µg/mL)
# number only, unit µg/mL dropped from output

Prompt: Give me measured solubility, please, for this compound: Clc1ccc(COC(Cn2ccnc2)c2ccc(Cl)cc2Cl)c(Cl)c1.O=[N+]([O-])O (stereo not shown) [miconazole nitrate]
Completion: 3100

* * *

ASSAY: Solubility of miconazole nitrate in several common solvents
Format: physicochemical
ASSAY_CONTEXT: organic solvent or mixture; Solvent: Benzene; read-out: solubility
Text: The imidazole ethers in general and the miconazoles in particular have very low solubilities in most solvents suitable for use in topical pharmaceutical compositions such as in the treatment of fungal skin infections. The solubility of miconazole nitrate, for example, in several common solvents has been determined to be as follows: […]
VALUE_TYPE: solubility (µg/mL)
Your answer should be a plain number; it is taken to be in µg/mL.

Prompt: Give me measured solubility, please, for this compound: Clc1ccc(COC(Cn2ccnc2)c2ccc(Cl)cc2Cl)c(Cl)c1.O=[N+]([O-])O (stereo not shown) [miconazole nitrate]
Completion: 500
